test system: HEK293T (UBE3A T485A transfected, BAR Wnt reporter); experiment: Wnt reporter firefly/Renilla luciferase ratio relative to plate median (fold (linear ratio)); higher = more Wnt/beta-catenin reporter activation; conditions: concentration: 1 uM; 24 h
Whole data set: some 1,100 compounds, median “Wnt reporter firefly/Renilla luciferase ratio relative to plate median” near 1.1, cut for the highest 2% near 1.6. The list comes from a sample in which the highest values are over-represented; it also holds close analogues and randomly drawn compounds.
Each entry gets FALSE if its Wnt reporter firefly/Renilla luciferase ratio stays under 1, and TRUE if its Wnt reporter firefly/Renilla luciferase ratio is 1 or above.

{"molecule": "O=C(O)C(F)(F)C(F)(F)C(F)(F)C(F)(F)C(F)(F)C(F)(F)C(F)(F)F", "answer_label": "TRUE"}
{"molecule": "CCOP(=O)(NC(C)C)Oc1ccc(SC)c(C)c1 (configuration not stated)", "answer_label": "FALSE"}
{"molecule": "O=C(O)C(F)(F)C(F)(F)C(F)(F)C(F)(F)C(F)(F)C(F)(F)C(F)(F)C(F)(F)C(F)(F)F", "answer_label": "TRUE"}
{"molecule": "CC(COc1ccc(Oc2ccccc2)cc1)Oc1ccccn1 (configuration not stated)", "answer_label": "TRUE"}
{"molecule": "Nc1cc(Cl)cc(C(=O)O)c1Cl", "answer_label": "TRUE"}
{"molecule": "ClC1=C(Cl)[C@]2(Cl)[C@H]3[C@H]([C@@H]4C=C[C@H]3C4)[C@@]1(Cl)C2(Cl)Cl", "answer_label": "FALSE"}
{"molecule": "O=[N+]([O-])c1cc(C(F)(F)F)c(Cl)c([N+](=O)[O-])c1Nc1ncc(C(F)(F)F)cc1Cl", "answer_label": "TRUE"}
{"molecule": "COP(=O)(OC)OC=C(Cl)Cl", "answer_label": "TRUE"}
{"molecule": "COP(=O)(OC)O/C(C)=C/C(=O)N(C)C", "answer_label": "TRUE"}
{"molecule": "O=C(O)C(F)(F)C(F)(F)C(F)(F)C(F)(F)C(F)(F)C(F)(F)C(F)(F)C(F)(F)C(F)(F)C(F)(F)F", "answer_label": "FALSE"}
{"molecule": "C=CCOC(=O)c1ccccc1C(=O)OCC=C [Diallyl phthalate]", "answer_label": "TRUE"}
{"molecule": "O=C(O)C(F)(F)C(F)(F)C(F)(F)C(F)(F)C(F)(F)F", "answer_label": "TRUE"}
{"molecule": "ClCC(Cl)CCl", "answer_label": "TRUE"}
{"molecule": "CCNc1nc(Cl)nc(NC(C)C)n1", "answer_label": "TRUE"}
{"molecule": "CCCC(=NOCC)C1=C(O)CC(CC(C)SCC)CC1=O (configuration not stated)", "answer_label": "TRUE"}
{"molecule": "O=S(=O)([O-])C(F)(F)C(F)(F)C(F)(F)C(F)(F)C(F)(F)C(F)(F)C(F)(F)C(F)(F)F.[K+]", "answer_label": "TRUE"}

----------
tested on: HEK293T (UBE3A T485A transfected, BAR Wnt reporter); test: Wnt reporter firefly/Renilla luciferase ratio relative to plate median (fold (linear ratio)); higher = more Wnt/beta-catenin reporter activation; details: concentration: 0.1 uM; 24 h
In all, about 1,100 compounds were measured (“Wnt reporter firefly/Renilla luciferase ratio relative to plate median”: median about 1.1, highest 2% from about 1.6 on). The sample as a whole holds a higher share of the highest values than the screen did.
Each entry gets class 0 if its Wnt reporter firefly/Renilla luciferase ratio stays under 1, and class 1 if its Wnt reporter firefly/Renilla luciferase ratio is 1 or above.

{"compound": "COP(=S)(OC)Oc1ccc([N+](=O)[O-])c(C)c1", "answer_label": "class 1"}
{"compound": "ClCC(Cl)CCl", "answer_label": "class 1"}
{"compound": "CC(C)Nc1nc(Cl)nc(NC(C)C)n1", "answer_label": "class 1"}
{"compound": "Nc1cc(Cl)cc(C(=O)O)c1Cl", "answer_label": "class 1"}
{"compound": "CCCCC(CC)COC(=O)c1ccccc1C(=O)O (stereo unspecified)", "answer_label": "class 0"}
{"compound": "COP(=S)(OC)Oc1ccc([N+](=O)[O-])cc1", "answer_label": "class 1"}
